System: MOLT-4 leukemia
assay_remarks: NCI-60 one-dose screen, 48 h (100 = growth as untreated, 0 = no growth, -100 = all killed)
applied_conditions: 10 µM unless noted
About 83,000 compounds went through this panel and 20% of them were active in at least one assay; those are over-represented in the sample as a whole.
We begin with a simple list: items and their reported growth.
The figure you give is taken to be in %; do not add the unit.

Sample records with growth:
[[record]]
molecule = "O=C(O)CCN1CCN(c2cccc(Cl)c2)CC1"
readout_name = "growth"
readout_unit = "%"
test_value = 91.3

[[record]]
molecule = "Cc1nc(NN)c([N+](=O)[O-])c(NN)n1"
readout_name = "growth"
readout_unit = "%"
test_value = 89.6

[[record]]
molecule = "Cc1nc(-c2ccccc2)cc2c(O)c(C(=O)N/N=C/Cc3ccccc3)[nH]c(=O)c12"
readout_name = "growth"
readout_unit = "%"
test_value = 90.5

[[record]]
molecule = "O=[N+]([O-])c1cc2c(cc1Br)-c1ccccc1C2"
readout_name = "growth"
readout_unit = "%"
test_value = 88.8

[[record]]
molecule = "C(=C\\c1ccccc1)/CN1CCN(C(c2ccccc2)c2ccccc2)CC1"
readout_name = "growth"
readout_unit = "%"
test_value = 90.2

[[record]]
molecule = "COc1ccc(OC)c(C2C(C#N)=C(N)Oc3cc(O)ccc32)c1 (stereo not drawn)"
readout_name = "growth"
readout_unit = "%"
test_value = 88.2

[[record]]
molecule = "CN(C)C(=S)SCN1C(=O)c2ccc([N+](=O)[O-])cc2S1(=O)=O"
readout_name = "growth"
readout_unit = "%"
test_value = 91.6


Now for the molecule whose growth we want.
// growth value for Cn1c2c(cc(S(=O)(=O)c3ccccc3)c1=O)CCc1c-2cnn1-c1ccccc1Cl : 90.7
